# Test system: MDA-MB-231 breast
# assay explanation: NCI tumour cell line growth inhibition, 48 h
# TGI per record follows
# value in µM; strip the unit string

Consider the reported TGI for these compounds:
CN1CCN(C(=O)c2c(NC(=O)NS(=O)(=O)c3ccccc3)sc3c2CCCCC3)CC1
79.6
CCOC(=O)NC1=C(N2CC2)C(=O)C(NC(=O)OCC)=C(N2CC2)C1=O
15.3

Just so you know, measured TGI for CN[C@@H]1C[C@H]2O[C@@](C)([C@@H]1OC)n1c3ccccc3c3c4c(c5c6ccccc6n2c5c31)C(=O)N[C@H]4O came out at 0.509

Just so you know, measured TGI for N#Cc1ccc(C2C3=C(CCCC3=O)OC3=C2C(=O)c2ccccc2C3=O)cc1 (stereo not given) came out at 1.83

Just so you know, measured TGI for COc1ccc2c(c1)c1nc3cc(C)c(C)cc3nc1n2CCN(C)C came out at 2.76

Just so you know, measured TGI for COc1ccc2nc3cc([N+](=O)[O-])ccc3c(NCCCN(CCO)CCO)c2c1 came out at 21.8

Just so you know, measured TGI for COC12OC3CC4(C)C(=CC3OC(OC(C)C1O)C2O)CCC1C4CCC2(C)C(c3ccc(=O)oc3)CCC12O (stereo not given) came out at 0.00792
